Observed pKi, system Metabotropic glutamate receptor 2 (Homo sapiens, UniProt Q14416).
The value called pKi is obtained by taking minus log10 of the concentration in mol/L.

Lab note: N[C@@H](CCP(=O)(O)O)C(=O)O gave pKi of 3.89

Lab note: N[C@@H](Cn1oc(=O)[nH]c1=O)C(=O)O [QUISQUALATE] gave pKi of 3.95
